Just for reference, PubChem BioAssay AID2202554 is where these values come from.

system: S. typhimurium/E. coli reverse mutation, colony counts; assay: Bacterial reverse mutation test (aka Ames test) summary data;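 note: His-minus Salmonella and trp-minus E. coli WP2 uvrA pKM101 with or without liver S9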
Results filed as inconclusive are left out. Calls of active or inactive are those of the source. The rule behind the calls is not given here.
Pick one: true (active), false (inactive)

Answered examples (5):
| COMPOUND | CATEGORY LABEL |
| --- | --- |
| C[N+](C)(C)CCCl | false |
| CCCCCCCCCCCCCC(=O)[O-].CCCCCCCCCCCCCC(=O)[O-].[Zn+2] | false |
| OCCN1CN(CCO)CN(CCO)C1 | true |
| C=CC(=O)OCCCC | false |
| Cc1cn([C@H]2C=C[C@@H](CO)O2)c(=O)[nH]c1=O | true |

**Query** Returns: the outcome recorded for S=C(NC1CCCCC1)NC1CCCCC1 in this assay.
**Result** false

**Query** Returns: the outcome recorded for CCc1cccc(C)c1N(C(=O)CCl)C(C)COC (centres undefined) in this assay.
**Result** false
